The reported measurements were obtained from patent US20250280696A1.

Can you tell me Absorption peak of the film for the items I'm about to list?
Test: Absorption and emission spectrum in spin-coated film
Assay type: physicochemical
Particulars: spin-coated film on glass
Reply numerically in nm, unit not repeated.

# Absorption peak of the film (compound: c1ccc(N(c2ccccc2)c2cc(N(c3ccccc3)c3ccccc3)c3ccc4c(N(c5ccccc5)c5ccccc5)cc(N(c5ccccc5)c5ccccc5)c5ccc2c3c54)cc1 ) is 482

The compound identified as Fc1cccc(F)c1N(c1ccccc1)c1cc(N(c2ccccc2)c2c(F)cccc2F)c2ccc3c(N(c4ccccc4)c4c(F)cccc4F)cc(N(c4ccccc4)c4c(F)cccc4F)c4ccc1c2c43 registered its Absorption peak of the film at 445

The recorded Absorption peak of the film for entry CC(C)(C)c1ccc(N(c2ccccc2)c2cc(N(c3ccccc3)c3ccc(C(C)(C)C)cc3)c3ccc4c(N(c5ccccc5)c5ccc(C(C)(C)C)cc5)cc(N(c5ccccc5)c5ccc(C(C)(C)C)cc5)c5ccc2c3c54)cc1 equals 472

For reference, reported Absorption peak of the film for Fc1ccc(N(c2ccccc2)c2cc(N(c3ccccc3)c3ccc(F)cc3)c3ccc4c(N(c5ccccc5)c5ccc(F)cc5)cc(N(c5ccccc5)c5ccc(F)cc5)c5ccc2c3c54)cc1 stands at 469

###

Test: Solubility of compounds in toluene
Assay type: physicochemical
Particulars: per 100 g toluene
Consider the following compounds; for each one, report its Solubilities(/100 g toluene).

Given item CC(C)c1cccc(C(C)C)c1N(c1ccc(C(C)(C)C)cc1)c1cc(N(c2ccc(C(C)(C)C)cc2)c2c(C(C)C)cccc2C(C)C)c2ccc3c(N(c4ccc(C(C)(C)C)cc4)c4c(C(C)C)cccc4C(C)C)cc(N(c4ccc(C(C)(C)C)cc4)c4c(C(C)C)cccc4C(C)C)c4ccc1c2c43 [Compound 8] , the value recorded as its Solubilities(/100 g toluene) is >20 g

Per the records, this compound ( c1ccc(N(c2ccccc2)c2cc(N(c3ccccc3)c3ccccc3)c3ccc4c(N(c5ccccc5)c5ccccc5)cc(N(c5ccccc5)c5ccccc5)c5ccc2c3c54)cc1 [Compound 20] ) has Solubilities(/100 g toluene) equal to >1.5 g

Please fill in: Solubilities(/100 g toluene) reported for Fc1ccc(N(c2ccccc2)c2cc(N(c3ccccc3)c3ccc(F)cc3)c3ccc4c(N(c5ccccc5)c5ccc(F)cc5)cc(N(c5ccccc5)c5ccc(F)cc5)c5ccc2c3c54)cc1 [Compound 16] = >1.5 g

The measured Solubilities(/100 g toluene) associated with CC(C)(C)c1ccc2c(c1)B1c3c(c4c5c(c3-n3c6ccc(C(C)(C)C)cc6c6cc(C(C)(C)C)cc1c63)Oc1ccc(C(C)(C)C)cc1B5c1cc(C(C)(C)C)cc3c5cc(C(C)(C)C)ccc5n-4c13)O2 [Compound E4, reference compound] reads >0.7 g

Please fill in: Solubilities(/100 g toluene) reported for CCCCCCCCc1ccc(-c2cc(N(c3ccc(C(C)(C)C)cc3)c3ccc(C(C)(C)C)cc3)ccc2N(c2cc(F)c(F)c(F)c2)c2cc(N(c3cc(F)c(F)c(F)c3)c3ccc(N(c4ccc(C(C)(C)C)cc4)c4ccc(C(C)(C)C)cc4)cc3-c3ccc(CCCCCCCC)cc3)c3ccc4c(N(c5cc(F)c(F)c(F)c5)c5ccc(N(c6ccc(C(C)(C)C)cc6)c6ccc(C(C)(C)C)cc6)cc5-c5ccc(CCCCCCCC)cc5)cc(N(c5cc(F)c(F)c(F)c5)c5ccc(N(c6ccc(C(C)(C)C)cc6)c6ccc(C(C)(C)C)cc6)cc5-c5ccc(CCCCCCCC)cc5)c5ccc2c3c54)cc1 [Compound 25] = >10 g

The value of Solubilities(/100 g toluene) measured for the compound CC(C)(C)c1ccc2c(c1)c1cc(C(C)(C)C)cc3c1n2-c1cccc2c1B3c1cc3c4ccccc4c4ccccc4c3c3c4c5c6ccccc6c6ccccc6c5ccc4n-2c13 [Compound E2, reference compound] turned out to be >0.7 g

Entry CCc1cccc(CC)c1N(c1ccc(C(C)(C)C)cc1)c1cc(N(c2ccc(C(C)(C)C)cc2)c2c(CC)cccc2CC)c2ccc3c(N(c4ccc(C(C)(C)C)cc4)c4c(CC)cccc4CC)cc(N(c4ccc(C(C)(C)C)cc4)c4c(CC)cccc4CC)c4ccc1c2c43 [Compound 11] , Solubilities(/100 g toluene) reported as 25.9 g

Noted for CCCCCCCCc1ccc(-c2cc(C(C)C)ccc2N(c2cc(F)c(F)c(F)c2)c2cc(N(c3cc(F)c(F)c(F)c3)c3ccc(C(C)C)cc3-c3ccc(CCCCCCCC)cc3)c3ccc4c(N(c5cc(F)c(F)c(F)c5)c5ccc(C(C)C)cc5-c5ccc(CCCCCCCC)cc5)cc(N(c5cc(F)c(F)c(F)c5)c5ccc(C(C)C)cc5-c5ccc(CCCCCCCC)cc5)c5ccc2c3c54)cc1 [Compound 22] : its Solubilities(/100 g toluene) reads >15 g

Summary for this compound, CCCCCCCCc1ccc(N(c2ccc(C(C)C)cc2-c2cc(F)c(F)c(F)c2)c2cc(N(c3ccc(CCCCCCCC)cc3)c3ccc(C(C)C)cc3-c3cc(F)c(F)c(F)c3)c3ccc4c(N(c5ccc(CCCCCCCC)cc5)c5ccc(C(C)C)cc5-c5cc(F)c(F)c(F)c5)cc(N(c5ccc(CCCCCCCC)cc5)c5ccc(C(C)C)cc5-c5cc(F)c(F)c(F)c5)c5ccc2c3c54)cc1 [Compound 26] : Solubilities(/100 g toluene) is >10 g

# Solubilities(/100 g toluene) (compound: Cc1cccc(C)c1N(c1ccc(C(C)(C)C)cc1)c1cc(N(c2ccc(C(C)(C)C)cc2)c2c(C)cccc2C)c2ccc3c(N(c4ccc(C(C)(C)C)cc4)c4c(C)cccc4C)cc(N(c4ccc(C(C)(C)C)cc4)c4c(C)cccc4C)c4ccc1c2c43 [Compound 4] ) is 4.2 g

Measured Solubilities(/100 g toluene), Cc1cccc(C)c1N(c1ccc(C(F)(F)F)cc1)c1cc(N(c2ccc(C(F)(F)F)cc2)c2c(C)cccc2C)c2ccc3c(N(c4ccc(C(F)(F)F)cc4)c4c(C)cccc4C)cc(N(c4ccc(C(F)(F)F)cc4)c4c(C)cccc4C)c4ccc1c2c43 [Compound 15] : >4 g

Per the records, this compound ( Fc1cccc(F)c1N(c1ccccc1)c1cc(N(c2ccccc2)c2c(F)cccc2F)c2ccc3c(N(c4ccccc4)c4c(F)cccc4F)cc(N(c4ccccc4)c4c(F)cccc4F)c4ccc1c2c43 [Compound 17] ) has Solubilities(/100 g toluene) equal to >1 g

Measured Solubilities(/100 g toluene) of Cc1cccc(C)c1N(c1cc(C(C)(C)C)cc(C(C)(C)C)c1)c1cc(N(c2cc(C(C)(C)C)cc(C(C)(C)C)c2)c2c(C)cccc2C)c2ccc3c(N(c4cc(C(C)(C)C)cc(C(C)(C)C)c4)c4c(C)cccc4C)cc(N(c4cc(C(C)(C)C)cc(C(C)(C)C)c4)c4c(C)cccc4C)c4ccc1c2c43 [Compound 7] : 4.6 g

Looking up Cc1cccc(C)c1N(c1ncc2ccccc2n1)c1cc(C(C)C)c2ccc3c(N(c4ncc5ccccc5n4)c4c(C)cccc4C)cc(C(C)C)c4ccc1c2c43 [Compound 19] , I found its Solubilities(/100 g toluene) recorded as >1 g

###

Test: Solubility of compounds in toluene
Format: physicochemical
Particulars: per 100 g toluene
Quantity name: Solubilities(/100 g toluene)

Input Cc1cc2ccccc2c(C)c1N(c1ccc(C(C)(C)C)cc1)c1cc(N(c2ccc(C(C)(C)C)cc2)c2c(C)cc3ccccc3c2C)c2ccc3c(N(c4ccc(C(C)(C)C)cc4)c4c(C)cc5ccccc5c4C)cc(N(c4ccc(C(C)(C)C)cc4)c4c(C)cc5ccccc5c4C)c4ccc1c2c43 [Compound 14] . Output Solubilities(/100 g toluene): >2 g

Solubilities(/100 g toluene) for Cc1cccc(C)c1N(c1nc(-c2ccccc2)nc(-c2ccccc2)n1)c1cc(C(C)C)c2ccc3c(N(c4nc(-c5ccccc5)nc(-c5ccccc5)n4)c4c(C)cccc4C)cc(C(C)C)c4ccc1c2c43 [Compound 18] is >1 g

The compound listed as Cc1cc2ccccc2cc1N(c1ccc(C(C)(C)C)cc1)c1cc(N(c2ccc(C(C)(C)C)cc2)c2cc3ccccc3cc2C)c2ccc3c(N(c4ccc(C(C)(C)C)cc4)c4cc5ccccc5cc4C)cc(N(c4ccc(C(C)(C)C)cc4)c4cc5ccccc5cc4C)c4ccc1c2c43 [Compound 13] has a reported Solubilities(/100 g toluene) of >2.5 g

Memo: Cc1ccccc1N(c1ccc(C(C)(C)C)cc1C)c1cc(N(c2ccccc2C)c2ccc(C(C)(C)C)cc2C)c2ccc3c(N(c4ccccc4C)c4ccc(C(C)(C)C)cc4C)cc(N(c4ccccc4C)c4ccc(C(C)(C)C)cc4C)c4ccc1c2c43 [Compound 12] , reported Solubilities(/100 g toluene): >3 g

Solubilities(/100 g toluene) in this record for CCCCCCCCc1ccc(-c2cc(OC)ccc2N(c2cc(F)c(F)c(F)c2)c2cc(N(c3cc(F)c(F)c(F)c3)c3ccc(OC)cc3-c3ccc(CCCCCCCC)cc3)c3ccc4c(N(c5cc(F)c(F)c(F)c5)c5ccc(OC)cc5-c5ccc(CCCCCCCC)cc5)cc(N(c5cc(F)c(F)c(F)c5)c5ccc(OC)cc5-c5ccc(CCCCCCCC)cc5)c5ccc2c3c54)cc1 [Compound 24] : >10 g

// Solubilities(/100 g toluene) lookup, compound = CC(C)c1cccc(C(C)C)c1N(c1cc(C(C)(C)C)cc(C(C)(C)C)c1)c1cc(N(c2cc(C(C)(C)C)cc(C(C)(C)C)c2)c2c(C(C)C)cccc2C(C)C)c2ccc3c(N(c4cc(C(C)(C)C)cc(C(C)(C)C)c4)c4c(C(C)C)cccc4C(C)C)cc(N(c4cc(C(C)(C)C)cc(C(C)(C)C)c4)c4c(C(C)C)cccc4C(C)C)c4ccc1c2c43 [Compound 9] , result: >20 g

So, CC(C)(C)c1ccc(N(c2ccccc2)c2cc(N(c3ccccc3)c3ccc(C(C)(C)C)cc3)c3ccc4c(N(c5ccccc5)c5ccc(C(C)(C)C)cc5)cc(N(c5ccccc5)c5ccc(C(C)(C)C)cc5)c5ccc2c3c54)cc1 [Compound 21] ? Its Solubilities(/100 g toluene) was >3 g

Measured Solubilities(/100 g toluene) of CC1CCC(C(C)C)C(Oc2ccc(-c3cc(C(C)C)ccc3N(c3cc(F)c(F)c(F)c3)c3cc(N(c4cc(F)c(F)c(F)c4)c4ccc(C(C)C)cc4-c4ccc(OC5CC(C)CCC5C(C)C)cc4)c4ccc5c(N(c6cc(F)c(F)c(F)c6)c6ccc(C(C)C)cc6-c6ccc(OC7CC(C)CCC7C(C)C)cc6)cc(N(c6cc(F)c(F)c(F)c6)c6ccc(C(C)C)cc6-c6ccc(OC7CC(C)CCC7C(C)C)cc6)c6ccc3c4c65)cc2)C1 (centres unmarked) [Compound 23] : >10 g
